MIC, AB for assorted compounds
System: A. baumannii ATCC 19606
Format: cell-based, Acinetobacter baumannii
EXPERIMENTAL PARAMETERS: ATCC 19606, 20 h

{"columns": ["COMPOUND", "MEASURE NAME", "RESULT"],
 "data": [
  ["NCCCC[C@H](NC(=O)CCN(Cc1ccc(F)cc1)C(=O)[C@H](CCCCN)NC(=O)CCN(Cc1ccc(F)cc1)C(=O)[C@H](CCCCN)NC(=O)COCCNC(=O)CCN(Cc1ccc(F)cc1)C(=O)[C@H](CCCCN)NC(=O)CCN(Cc1ccc(F)cc1)C(=O)[C@H](CCCCN)NC(=O)CCN(Cc1ccc(F)cc1)C(=O)[C@@H](N)CCCCN)C(=O)N(CCC(N)=O)Cc1ccc(F)cc1 [Compound 6, H-[X]3-sPEG1-[X]3-NH2]", "MIC, AB", "4 to 8 µg/mL"]
]}

Now for the compound whose MIC, AB we want.
Input NCCCC[C@H](NC(=O)CCN(Cc1ccc(F)cc1)C(=O)[C@H](CCCCN)NC(=O)COCCOCCOCCNC(=O)CCN(Cc1ccc(F)cc1)C(=O)[C@H](CCCCN)NC(=O)CCN(Cc1ccc(F)cc1)C(=O)[C@H](CCCCN)NC(=O)COCCOCCOCCNC(=O)CCN(Cc1ccc(F)cc1)C(=O)[C@H](CCCCN)NC(=O)CCN(Cc1ccc(F)cc1)C(=O)[C@@H](N)CCCCN)C(=O)N(CCC(N)=O)Cc1ccc(F)cc1 [Compound 17, H-[X]2-sPEG3-[X]2-sPEG3-[X]2-NH2] . Output MIC, AB: 16 to 32 µg/mL

* * *

ASSAY METHOD TEXT: Estimation of log D values (n-octanol/PBS pH 7.4, LC-MS, log Dmax from LOQ)
Assay type: physicochemical
EXPERIMENTAL PARAMETERS: n-octanol/PBS pH 7.4, 25 °C; indicative threshold from LOQ in octanol phase
MEASURE NAME: log Dmax

For orientation, consider the following solved cases.
{"columns": ["MOLECULE", "log Dmax"],
 "data": [
  ["NCCCC[C@H](NC(=O)CCN(Cc1ccc(F)cc1)C(=O)[C@H](CCCCN)NC(=O)CCN(Cc1ccc(F)cc1)C(=O)[C@H](CCCCN)NC(=O)COCCOCCN)C(=O)N(CCC(=O)NCCOCCOCC(=O)N[C@@H](CCCCN)C(=O)N(CCC(=O)N[C@@H](CCCCN)C(=O)N(CCC(=O)N[C@@H](CCCCN)C(=O)N(CCC(=O)NCCOCCOCC(N)=O)Cc1ccc(F)cc1)Cc1ccc(F)cc1)Cc1ccc(F)cc1)Cc1ccc(F)cc1 [Compound 12, H-sPEG2-[X]3-sPEG2-[X]3-sPEG2-NH2]", "< −3.147"],
  ["NCCCC[C@H](NC(=O)CCN(Cc1ccc(F)cc1)C(=O)[C@H](CCCCN)NC(=O)CCN(Cc1ccc(F)cc1)C(=O)[C@H](CCCCN)NC(=O)CCOCCOCCOCCOCCN)C(=O)N(CCC(=O)NCCOCCOCCOCCOCCC(=O)N[C@@H](CCCCN)C(=O)N(CCC(=O)N[C@@H](CCCCN)C(=O)N(CCC(=O)N[C@@H](CCCCN)C(=O)N(CCC(=O)NCCOCCOCCOCCOCCC(N)=O)Cc1ccc(F)cc1)Cc1ccc(F)cc1)Cc1ccc(F)cc1)Cc1ccc(F)cc1 [Compound 14, H-sPEG4-[X]3-sPEG4-[X]3-sPEG4-NH2]", "< −2.883"],
  ["NCCCC[C@H](NC(=O)CCN(Cc1ccc(F)cc1)C(=O)[C@H](CCCCN)NC(=O)CCN(Cc1ccc(F)cc1)C(=O)[C@H](CCCCN)NC(=O)COCCOCCNC(=O)CCN(Cc1ccc(F)cc1)C(=O)[C@H](CCCCN)NC(=O)CCN(Cc1ccc(F)cc1)C(=O)[C@H](CCCCN)NC(=O)CCN(Cc1ccc(F)cc1)C(=O)[C@@H](N)CCCCN)C(=O)N(CCC(N)=O)Cc1ccc(F)cc1 [Compound 7, H-[X]3-sPEG2-[X]3-NH2]", "< −3.650"],
  ["NCCCC[C@H](NC(=O)CCN(Cc1ccc(F)cc1)C(=O)[C@H](CCCCN)NC(=O)CCN(Cc1ccc(F)cc1)C(=O)[C@H](CCCCN)NC(=O)CCN(Cc1ccc(F)cc1)C(=O)[C@H](CCCCN)NC(=O)CCN(Cc1ccc(F)cc1)C(=O)[C@H](CCCCN)NC(=O)CCN(Cc1ccc(F)cc1)C(=O)[C@@H](N)CCCCN)C(=O)N(CCC(N)=O)Cc1ccc(F)cc1 [Compound 1, H-[Lys-βNPhe(4-F)]6-NH2]", "< −2.662"]
]}

Input NCCCC[C@H](NC(=O)CCN(Cc1ccc(F)cc1)C(=O)[C@H](CCCCN)NC(=O)COCCNC(=O)CCN(Cc1ccc(F)cc1)C(=O)[C@H](CCCCN)NC(=O)CCN(Cc1ccc(F)cc1)C(=O)[C@H](CCCCN)NC(=O)COCCNC(=O)CCN(Cc1ccc(F)cc1)C(=O)[C@H](CCCCN)NC(=O)CCN(Cc1ccc(F)cc1)C(=O)[C@@H](N)CCCCN)C(=O)N(CCC(N)=O)Cc1ccc(F)cc1 [Compound 15, H-[X]2-sPEG1-[X]2-sPEG1-[X]2-NH2] . Output log Dmax: < −3.180

* * *

Test system: A. baumannii NMI 3658/17
Type: cell-based, Acinetobacter baumannii
EXPERIMENTAL PARAMETERS: NMI 3658/17, 20 h
MEASURE NAME: MIC, A. baumannii NMI 3658/17 (µg/mL)
Only the number, expressed in µg/mL, is required.

{"columns": ["COMPOUND", "RESULT"],
 "data": [
  ["NCCCC[C@H](NC(=O)CCN(Cc1ccc(F)cc1)C(=O)[C@H](CCCCN)NC(=O)CCN(Cc1ccc(F)cc1)C(=O)[C@H](CCCCN)NC(=O)COCCOCCNC(=O)CCN(Cc1ccc(F)cc1)C(=O)[C@H](CCCCN)NC(=O)CCN(Cc1ccc(F)cc1)C(=O)[C@H](CCCCN)NC(=O)CCN(Cc1ccc(F)cc1)C(=O)[C@@H](N)CCCCN)C(=O)N(CCC(N)=O)Cc1ccc(F)cc1 [Compound 7, H-[X]3-sPEG2-[X]3-NH2]", 4],
  ["NCCCC[C@H](NC(=O)CCN(Cc1ccc(F)cc1)C(=O)[C@H](CCCCN)NC(=O)CCN(Cc1ccc(F)cc1)C(=O)[C@H](CCCCN)NC(=O)COCCN)C(=O)N(CCC(=O)NCCOCC(=O)N[C@@H](CCCCN)C(=O)N(CCC(=O)N[C@@H](CCCCN)C(=O)N(CCC(=O)N[C@@H](CCCCN)C(=O)N(CCC(=O)NCCOCC(N)=O)Cc1ccc(F)cc1)Cc1ccc(F)cc1)Cc1ccc(F)cc1)Cc1ccc(F)cc1 [Compound 11, H-sPEG1-[X]3-sPEG1-[X]3-sPEG1-NH2]", 8],
  ["NCCCC[C@H](NC(=O)CCN(Cc1ccc(F)cc1)C(=O)[C@H](CCCCN)NC(=O)COCCOCCOCCNC(=O)CCN(Cc1ccc(F)cc1)C(=O)[C@H](CCCCN)NC(=O)CCN(Cc1ccc(F)cc1)C(=O)[C@H](CCCCN)NC(=O)COCCOCCOCCNC(=O)CCN(Cc1ccc(F)cc1)C(=O)[C@H](CCCCN)NC(=O)CCN(Cc1ccc(F)cc1)C(=O)[C@@H](N)CCCCN)C(=O)N(CCC(N)=O)Cc1ccc(F)cc1 [Compound 17, H-[X]2-sPEG3-[X]2-sPEG3-[X]2-NH2]", 16]
]}

Now for the compound whose MIC, A. baumannii NMI 3658/17 we want.
Input NCCCC[C@H](NC(=O)CCN(Cc1ccc(F)cc1)C(=O)[C@H](CCCCN)NC(=O)CCN(Cc1ccc(F)cc1)C(=O)[C@H](CCCCN)NC(=O)COCCOCCN)C(=O)N(CCC(=O)NCCOCCOCC(=O)N[C@@H](CCCCN)C(=O)N(CCC(=O)N[C@@H](CCCCN)C(=O)N(CCC(=O)N[C@@H](CCCCN)C(=O)N(CCC(=O)NCCOCCOCC(N)=O)Cc1ccc(F)cc1)Cc1ccc(F)cc1)Cc1ccc(F)cc1)Cc1ccc(F)cc1 [Compound 12, H-sPEG2-[X]3-sPEG2-[X]3-sPEG2-NH2] . Output MIC, A. baumannii NMI 3658/17: 16

* * *

ASSAY METHOD TEXT: Hydrophobicity by retention in analytical RP-HPLC (% MeCN at peak elution)
Type: physicochemical
EXPERIMENTAL PARAMETERS: Supelco Discovery BIO Wide pore C18 column; gradient 0→60% B during 15 min
MEASURE NAME: % MeCN at Elution, Supelco Discovery

{"columns": ["COMPOUND", "RESULT"],
 "data": [
  ["NCCCC[C@H](NC(=O)CCN(Cc1ccc(F)cc1)C(=O)[C@H](CCCCN)NC(=O)CCN(Cc1ccc(F)cc1)C(=O)[C@H](CCCCN)NC(=O)CCOCCOCCOCCOCCN)C(=O)N(CCC(=O)NCCOCCOCCOCCOCCC(=O)N[C@@H](CCCCN)C(=O)N(CCC(=O)N[C@@H](CCCCN)C(=O)N(CCC(=O)N[C@@H](CCCCN)C(=O)N(CCC(=O)NCCOCCOCCOCCOCCC(N)=O)Cc1ccc(F)cc1)Cc1ccc(F)cc1)Cc1ccc(F)cc1)Cc1ccc(F)cc1 [Compound 14, H-sPEG4-[X]3-sPEG4-[X]3-sPEG4-NH2]", "42.5 % MeCN"],
  ["NCCCC[C@H](NC(=O)CCN(Cc1ccc(F)cc1)C(=O)[C@H](CCCCN)NC(=O)CCN(Cc1ccc(F)cc1)C(=O)[C@H](CCCCN)NC(=O)CCOCCOCCOCCOCCNC(=O)CCN(Cc1ccc(F)cc1)C(=O)[C@H](CCCCN)NC(=O)CCN(Cc1ccc(F)cc1)C(=O)[C@H](CCCCN)NC(=O)CCN(Cc1ccc(F)cc1)C(=O)[C@@H](N)CCCCN)C(=O)N(CCC(N)=O)Cc1ccc(F)cc1 [Compound 9, H-[X]3-sPEG4-[X]3-NH2]", "42.0 % MeCN"],
  ["NCCCC[C@H](NC(=O)CCN(Cc1ccc(F)cc1)C(=O)[C@H](CCCCN)NC(=O)COCCOCCNC(=O)CCN(Cc1ccc(F)cc1)C(=O)[C@H](CCCCN)NC(=O)CCN(Cc1ccc(F)cc1)C(=O)[C@H](CCCCN)NC(=O)COCCOCCNC(=O)CCN(Cc1ccc(F)cc1)C(=O)[C@H](CCCCN)NC(=O)CCN(Cc1ccc(F)cc1)C(=O)[C@@H](N)CCCCN)C(=O)N(CCC(N)=O)Cc1ccc(F)cc1 [Compound 16, H-[X]2-sPEG2-[X]2-sPEG2-[X]2-NH2]", "41.6 % MeCN"],
  ["NCCCC[C@H](NC(=O)CCN(Cc1ccc(F)cc1)C(=O)[C@H](CCCCN)NC(=O)COCCNC(=O)CCN(Cc1ccc(F)cc1)C(=O)[C@H](CCCCN)NC(=O)CCN(Cc1ccc(F)cc1)C(=O)[C@H](CCCCN)NC(=O)COCCNC(=O)CCN(Cc1ccc(F)cc1)C(=O)[C@H](CCCCN)NC(=O)CCN(Cc1ccc(F)cc1)C(=O)[C@@H](N)CCCCN)C(=O)N(CCC(N)=O)Cc1ccc(F)cc1 [Compound 15, H-[X]2-sPEG1-[X]2-sPEG1-[X]2-NH2]", "41.2 % MeCN"]
]}

Now for the compound whose % MeCN at Elution, Supelco Discovery we want.
Input NCCCC[C@H](NC(=O)CCN(Cc1ccc(F)cc1)C(=O)[C@H](CCCCN)NC(=O)CCN(Cc1ccc(F)cc1)C(=O)[C@H](CCCCN)NC(=O)COCCNC(=O)CCN(Cc1ccc(F)cc1)C(=O)[C@H](CCCCN)NC(=O)CCN(Cc1ccc(F)cc1)C(=O)[C@H](CCCCN)NC(=O)CCN(Cc1ccc(F)cc1)C(=O)[C@@H](N)CCCCN)C(=O)N(CCC(N)=O)Cc1ccc(F)cc1 [Compound 6, H-[X]3-sPEG1-[X]3-NH2] . Output % MeCN at Elution, Supelco Discovery: 41.4 % MeCN
